Test system: Human papillomavirus type 1a protein E7 (residues 44-93)
assayComment: HPV1a E7 fragment binders on microarrays, primary screen, biochemical, small-molecule microarray, residues 44-93, 635 nm fluorescence (AID 1108);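 note: E7 fragment applied at 1 µg/mL in TBST for 1 h at 4 C; score combines spot fluorescence with its signal to noise ratio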
settings: small-molecule microarray binding, fluorescence 635 nm; higher = more signal
Param threshold (0.5) applies to composite z-score; output Satisfied when value >= threshold, Not satisfied when value < threshold.

{"compound": "Cc1ccc(S(=O)(=O)N[C@H]2COC(=O)CC=C[C@H](C)[C@@H](NS(=O)(=O)c3ccc(C)cc3)COC(=O)CC=C[C@@H]2C)cc1", "targetOrTestSystem": "Human papillomavirus type 1a protein E7 (residues 44-93)", "className": "Satisfied"}
{"compound": "COC(=O)CC=C[C@@H](C)[C@@H](C=NOCC[C@@H]1C=C[C@H](OC(C)=O)[C@@H](COC(C)=O)O1)OC", "targetOrTestSystem": "Human papillomavirus type 1a protein E7 (residues 44-93)", "className": "Not satisfied"}
{"compound": "CCOC(=O)[C@H](Cc1ccccc1)NC(=O)CCC1CC(OC(=O)NCc2ccc3c(c2)OCO3)CC2(CCCC(COC(=O)NCCc3ccccc3OC)O2)O1 (some centres not stated)", "targetOrTestSystem": "Human papillomavirus type 1a protein E7 (residues 44-93)", "className": "Satisfied"}
{"compound": "CCCCC#C[C@@H]1C=C[C@H](OC(C)=O)[C@@H](COC(C)=O)O1", "targetOrTestSystem": "Human papillomavirus type 1a protein E7 (residues 44-93)", "className": "Satisfied"}
{"compound": "COC(=O)CC=C[C@@H](C)[C@H](OCc1cccc(-c2ccccc2)c1)C1CCCCC1", "targetOrTestSystem": "Human papillomavirus type 1a protein E7 (residues 44-93)", "className": "Not satisfied"}
{"compound": "CCN1C(=O)[C@H]2[C@H]3[C@H](O)[C@H](O)CC(=NOC[C@H]4O[C@H](c5ccccc5)C=C[C@@H]4Oc4ccc(OC)cc4)[C@@H]3CC[C@H]2C1=O", "targetOrTestSystem": "Human papillomavirus type 1a protein E7 (residues 44-93)", "className": "Satisfied"}
